assay: Blood sampling for THC and CBD plasma concentration after single oral dosing; conditions: dog, plasma, oral, THC level in blood plasma fraction, individual dogs 1-4; 0.24 mg/kg THC + 0.12 mg/kg CBD oral once; 1 h
assayMetric: concentration at 1 h (ng/mL)
Answers are plain numbers, in ng/mL.

[ask] Which concentration at 1 h is listed for CCCCCc1cc(O)c2c(c1)OC(C)(C)[C@@H]1CCC(C)=C[C@@H]21 [THC, Δ^9-Tetrahydrocannabinol] ?
[reply] 45.2

###

Experiment: Blood sampling for THC and CBD plasma concentration after single oral dosing
Conditions: dog, plasma, oral, CBD concentration in blood plasma, mean of dogs 1-4; 0.12 mg/kg CBD + 0.24 mg/kg THC oral once; 6 h
Protocol: Two compositions, IVP1 and IVP2, were administered in varying amounts in the study. Dosage volumes were calculated prior to Day 0, to provide the target dosage in mg/kg bodyweight based on actual dog bodyweights and IVP active ingredient composition based on the Certificates of Analysis. Blood samples of approximately 5 mL were collected at each drug concentration sampling time-point from each animal using 22-gauge needles and 5 mL syringes. […]
assayMetric: concentration at 6 h (ng/mL)
Answers are plain numbers, in ng/mL.

[ask] Which concentration at 6 h is listed for C=C(C)[C@@H]1CCC(C)=C[C@H]1c1c(O)cc(CCCCC)cc1O ?
[reply] 2.02
